Recorded values, source patent US20180355043A1.

Overview of reported ECL signal across a group of binders:
target: T1, DR4G86: Human HLA-DRA1*01:02/DRB1*04:01 ECD with CLIP peptide (human); test: MSD ECL; antigen coated; protocol of Example 3
T1 construct: also called DRB1*04:01 CLIP; HLA-DR4 ECD
Entry format: amount then unit.

These solved cases illustrate the format of a correct answer.
Query (binder): DR4B4 (antibody, V domains shown, also called Lym-1 re-engineered as IgG2sigma) VH: QVQLKESGPGLVAPSQSLSITCTISGFSLTSYGVHWVRQPPGKGLEWLVVIWSDGSTTYNSALKSRLSISKDNSKSQVFLKMNSLQTDDTAIYYCASHYGSTLAFASWGHGTLVTVSA VL: DIQMTQSPASLSASVGETVTIICRASVNIYSYLAWYQQKQGKSPQLLVYNAKILAEGVPSRFSGSGSGTQFSLKINSLQPEDFGSYYCQHHYGPFTFGSGTKLEIK ; field requested: ECL signal
129000 ECL

Reported ECL signal, binder DR4B6 (antibody, V domains shown, also called L243 re-engineered as IgG2sigma) VH: QIQLVQSGPELKKPGETVKISCKASGFTFTNYGMNWVKQAPGKGLKWMGWINTYTREPTYADDFKGRFAFSLETSASTAYLQINNLKNEDTAKYFCARDITAVVPTGFDYWGQGTTLTVSS VL: DIQMTQSPASLSVSVGETVTITCRASENIYSNLAWYRQKQGKSPQLLVFAASNLADGVPSRFSGSGSGTQYSLKINSLQSEDFGDYYCQHFWTTPWAFGGGTNLEIK : ____
588000 ECL

# input binder: DR4B98 (antibody, human IgG2, kappa, V domains shown, also called VH DR4H50 / VL PH9L3) VH: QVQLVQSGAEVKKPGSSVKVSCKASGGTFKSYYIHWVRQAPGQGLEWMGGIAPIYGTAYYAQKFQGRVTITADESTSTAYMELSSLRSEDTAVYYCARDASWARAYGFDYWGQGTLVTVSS VL: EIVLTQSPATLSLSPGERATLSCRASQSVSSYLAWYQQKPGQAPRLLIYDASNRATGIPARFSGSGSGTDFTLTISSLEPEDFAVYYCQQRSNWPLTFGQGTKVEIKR ; wanted: its ECL signal
167000 ECL

I'd like to know its ECL signal. The binder in question is DR4B5 (antibody, V domains shown, also called apolizumab (1D10) re-engineered as IgG2sigma) VH: QVQLQESGPGLVKPSETLSLTCTVSGFSLTNYGVHWVRQSPGKGLEWIGVKWSGGSTEYNAAFISRLTISKDTSKNQVSLKLNSLTAADTAVYYCARNDRYAMDYWGQGTLVTVSS VL: DIQMTQSPSSLSASVGDRVTITCRASENIYSYLAWYQQKPGKAPKLLVSNAKTLAEGVPSRFSGSGSGKQFTLTISSLQPEDFATYYCQHHYGNSYPFGQGTKLEIK
7030 ECL

Next:
// ECL signal lookup, key: DR4B127 (antibody, human IgG2, kappa, V domains shown, also called VH DR4H7 / VL PH9L3) VH: QVQLVQSGAEVKKPGSSVKVSCKASGGTFKSYYIHWVRQAPGQGLEWMGGIRPISGNAEYAQKFQGRVTITADESTSTAYMELSSLRSEDTAVYYCARDASYYRNYGFDYWGQGTLVTVSS VL: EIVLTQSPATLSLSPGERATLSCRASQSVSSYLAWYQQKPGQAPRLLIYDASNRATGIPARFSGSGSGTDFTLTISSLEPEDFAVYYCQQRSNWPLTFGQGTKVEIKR
1.02e+06 ECL
